Catalogue of ELISA fold over background readings, one per entry.
biological target: T1, Acro COVID S1 (S1N-C82E8) (SARS-CoV-2, UniProt P0DTC2 16-685); test: phage ELISA
T1 construct: domain: S1
readout-name: ELISA fold over background (fold over background)

1-17 (antibody, V domains shown, also called variant 1-17) VH: EVQLLESGGGLVQPGGSLRLSCAASGFTFSSYAMYWVRQAPGKGLEWVSAISGSAGSTYYADSVKGRFTISRDNSKNTLYLQMNSLRAEDTAVYYCARDTNDFWSGYSIFDPWGQGTLVTVSS VL: QSALTQPASVSGSPGQSITISCTGTSSDIGSYNLVSWYQQHPGKAPKLMIYEGTKRPSGVSNRFSGSKSGNTASLTISGLQAEDEADYYCCSYAGSRTYVFGGGTKLTVL ... 25.1
1-30 (antibody, V domains shown, also called variant 1-30) VH: EVQLLESGGGLVQPGGSLRLSCAASGFTFSSYAMTWVRQAPGKGLEWVSAISGSGGSTFYADSVKGRFTISRDNSKNTLYLQMNSLRAEDTAVYYCTRPPYGDYGDYWGQGTLVTVSS VL: QSALTQPASVSGSPGQSITISCTGTSRDVGSYNLVSWYQQHPGKAPKLMIYEGTKRPSGVSNRFSGSKSGNTASLTISGLQAEDEADYYCCSYAGSRTPVVFGGGTKLTVL ... 16.8
1-23 (antibody, V domains shown, also called variant 1-23) VH: EVQLLESGGGLVQPGGSLRLSCAASGFTFSSYAISWVRQAPGKGLEWVSIISGSGGSTYYADSVKGRFTISRDNSKNTLYLQMNSLRAEDTAVYYCAREGYRDYLWYFDLWGQGTLVTVSS VL: QSALTQPASVSGSPGQSITISCTGTSNDVGSYNLVSWYQQHPGKAPKLMIYEGNKRPSGVSNRFSGSKSGNTASLTISGLQAEDEADYYCCSYAGSYTVFGGGTKLTVL ... 5.1

The measured values listed here are drawn from patent US20210395344A1.
